- test-system: PKL (Homo sapiens)
- Sequence (P30613 1-543 isoform P30613-2): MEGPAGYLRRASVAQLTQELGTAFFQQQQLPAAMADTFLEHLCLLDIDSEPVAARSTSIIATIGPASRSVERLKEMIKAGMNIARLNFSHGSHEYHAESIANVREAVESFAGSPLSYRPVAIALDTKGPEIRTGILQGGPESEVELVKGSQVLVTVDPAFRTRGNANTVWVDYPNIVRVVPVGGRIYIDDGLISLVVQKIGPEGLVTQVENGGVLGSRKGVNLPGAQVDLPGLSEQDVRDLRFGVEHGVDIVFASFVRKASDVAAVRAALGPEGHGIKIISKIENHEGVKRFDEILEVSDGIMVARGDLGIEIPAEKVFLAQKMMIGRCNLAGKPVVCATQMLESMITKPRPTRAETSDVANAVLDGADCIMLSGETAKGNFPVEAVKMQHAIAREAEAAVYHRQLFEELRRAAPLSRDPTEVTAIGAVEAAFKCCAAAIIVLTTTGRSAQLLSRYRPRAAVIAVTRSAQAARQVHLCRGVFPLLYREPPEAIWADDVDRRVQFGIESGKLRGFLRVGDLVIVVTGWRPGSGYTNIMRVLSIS
- test-details: Surface plasmon resonance, PKL
- condition-details: K D SPR (PKL), 20 °C, mean ± SE n=3
observed-property: Kd (nM)
One number for each entry, in nM.

Consider the following illustrative entries.
*Q* Look at this molecule and give its reported Kd. O=c1c2ccc(S(=O)(=O)c3ccccc3)cc2cnn1Cc1ccccc1 [Compound I, reference compound]
*A* 133

*Q* Look at this molecule and give its reported Kd. `CN(C)c1ccc(S(=O)(=O)c2ccc3c(=O)n(Cc4cc[nH]n4)ncc3c2)c2nonc12`
*A* 37

New cases:
*Q* Look at this molecule and give its reported Kd. `CN(C)c1ccc(S(=O)(=O)c2ccc3c(=O)n(Cc4ccccc4)ncc3c2)c2nonc12`
*A* 36200

Provenance of the data: paper PMC12518693
